- System: A/Louisiana/50/2017 A(H3N2)
- assay-info: microbe, parasite or virus in culture
- Format: cell-based
- condition-info: Influenza A virus, H3N2, read-out: Mean EC50 ± SD
result-type: pEC50
pEC50 here: minus log base 10 of the concentration, concentration in moles per litre.

stdin: Requested field: pEC50. Item: "O=C1c2c(O)c(=O)ccn2N([C@@H]2c3ccccc3SCc3c2ccc(F)c3F)[C@@H]2COCCN12"
stdout: 8.98

----------
- Tested on: A/Illinois/08/2018 A(H1N1)pdm09
- assay-info: microbe, parasite or virus in culture
- Assay type: cell-based, influenza A(H1N1)pdm09 virus
- condition-info: Influenza A virus, H1N1, read-out: Mean EC50 ± SD
result-type: pEC50
Lab note: report pEC50 as minus log10 of the concentration in molar units, number only.

stdin: Look up pEC50 for this compound: "O=C1c2c(O)c(=O)ccn2N([C@@H]2c3ccccc3SCc3c2ccc(F)c3F)[C@@H]2COCCN12"
stdout: 8.78
